The reported numbers originate from PubChem BioAssay (NCI).

- protocol.summary: NCI Yeast Anticancer Drug Screen. Data for the sgs1 mgt1 strain (AID 161);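 further: 0% = growth of cultures given vehicle only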
- measurement.parameters: S. cerevisiae sgs1 mgt1 strain, at 50.0 µM, hits give high values
About 79,000 compounds went through this panel and 15% of them were active in at least one assay; those are over-represented in the sample as a whole.
Entries and their growth inhibition
Express it in %; write the number only.

Worked set:
compound=c1ccc(Cc2ncc(-c3ccccc3)cc2-c2ccccc2)cc1 readout_value=3.1
compound=CCOc1ccc(C(=O)C=O)cc1 readout_value=11.4
compound="CCOC(=O)COc1cc2c(cc1C(C)c1cc(OC)c(OC)c(OC)c1)OCO2 (configuration not stated)" readout_value=10.3
compound=COc1cc(OC)c(OCc2ccccc2)c(OC)c1 readout_value=-0.25
compound="CC(=O)C(C)(O)C(OP(=O)(O)O)c1ccccc1 (configuration not stated)" readout_value=4.6

Q) Return reported growth inhibition; argument: COc1cc(-c2[nH]ncc2CCCC(=O)Nc2ccccc2[N+](=O)[O-])ccc1O
A) -14.5

Q) What does the data say about its growth inhibition? Entry: CC(C)=CC(=O)OC1C2C(C)=CC(=O)C(O)C2(C)C2C3(O)OCC24C(CC(=O)OC14)C(C)C3O (configuration not stated)
A) 91.5

Q) // growth inhibition lookup, key: CC1=C(C(=O)CC(=O)C(=O)Nc2cccc(C)c2C)Sc2ccccc2N1
A) -12.8
